target: PDGFRB (Homo sapiens, UniProt P09619); construct: Kinases are expressed as either kinase domains or full length constructs; made in house; experiment: Kinase inhibition assay (33P transfer), PDGFRB; format: biochemical; conditions: read-out: PDGFRB-1
Sequence (P09619 33-1106, species assumed): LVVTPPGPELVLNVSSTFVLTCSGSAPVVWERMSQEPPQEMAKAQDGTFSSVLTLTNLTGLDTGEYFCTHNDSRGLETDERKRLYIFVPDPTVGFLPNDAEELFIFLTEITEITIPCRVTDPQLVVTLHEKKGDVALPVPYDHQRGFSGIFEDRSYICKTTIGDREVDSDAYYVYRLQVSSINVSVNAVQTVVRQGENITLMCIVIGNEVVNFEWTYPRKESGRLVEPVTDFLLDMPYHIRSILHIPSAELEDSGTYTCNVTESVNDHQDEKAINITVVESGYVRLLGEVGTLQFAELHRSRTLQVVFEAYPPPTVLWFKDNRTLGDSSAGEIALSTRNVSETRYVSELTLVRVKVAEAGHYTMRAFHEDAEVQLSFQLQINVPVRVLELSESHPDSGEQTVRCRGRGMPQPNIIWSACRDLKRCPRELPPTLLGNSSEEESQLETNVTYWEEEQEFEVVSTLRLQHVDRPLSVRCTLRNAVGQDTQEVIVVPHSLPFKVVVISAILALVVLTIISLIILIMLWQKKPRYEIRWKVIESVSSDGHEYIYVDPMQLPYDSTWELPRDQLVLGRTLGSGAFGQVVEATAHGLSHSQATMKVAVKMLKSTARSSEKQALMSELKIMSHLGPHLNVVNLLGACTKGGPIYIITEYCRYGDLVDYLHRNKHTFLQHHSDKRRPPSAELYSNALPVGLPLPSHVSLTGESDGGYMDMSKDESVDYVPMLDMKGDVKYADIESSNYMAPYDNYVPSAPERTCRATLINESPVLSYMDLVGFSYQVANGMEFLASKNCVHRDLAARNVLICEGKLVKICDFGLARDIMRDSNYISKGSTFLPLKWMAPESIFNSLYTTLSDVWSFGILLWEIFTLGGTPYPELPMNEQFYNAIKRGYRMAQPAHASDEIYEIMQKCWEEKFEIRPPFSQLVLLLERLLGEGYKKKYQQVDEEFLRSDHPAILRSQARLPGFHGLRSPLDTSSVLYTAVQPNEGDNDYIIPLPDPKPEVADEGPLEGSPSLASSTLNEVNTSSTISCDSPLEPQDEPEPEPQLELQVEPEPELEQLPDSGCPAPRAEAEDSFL
Would you mind telling me the reported IC50 of each entry?

Data request: With PDGFRB (Homo sapiens, UniProt P09619) as the test system, provide measured IC50 for this compound: O=C(O)CCNC(=O)c1ccc(Nc2ncnc(Nc3cc(-c4ccco4)[nH]n3)n2)cc1
Data returned: 0.921 to 5.52 µM

Data request: State recorded IC50 with PDGFRB (Homo sapiens, UniProt P09619), entry COc1cc(Nc2ncnc(-c3cccnc3Cl)n2)cc(OC)c1OCCN1CCOCC1 , no comment.
Data returned: 0.846 to 5.07 µM

Data request: Quote IC50 with test system PDGFRB (Homo sapiens, UniProt P09619) for COC(=O)c1ccc(-c2cc(Nc3ncnc(NCc4ccccc4OC)n3)[nH]n2)cc1
Data returned: 0.927 to 5.56 µM

Data request: Report value only: IC50, PDGFRB (Homo sapiens, UniProt P09619), OCc1cccc(Nc2ncnc(-c3cccnc3NCc3ccc(F)cc3)n2)c1
Data returned: < 0.994 µM

Data request: // fetch IC50 for COc1cc(Nc2ncnc(-c3cccnc3Nc3ccccc3)n2)ccc1NC(=O)CCCN1CCNCC1 ; system: PDGFRB (Homo sapiens, UniProt P09619)
Data returned: < 0.741 µM

Data request: Supply IC50 measured with PDGFRB (Homo sapiens, UniProt P09619) for Cc1cccc(Nc2ncnc(N(C)c3ccc4c(cnn4Cc4ccccc4)c3)n2)c1 .
Data returned: 8.3 to 10.7 µM

Data request: Write down the reported IC50 (system: PDGFRB (Homo sapiens, UniProt P09619)) of COC(=O)c1ccc(-c2cc(Nc3ncnc(NCCN4CCOCC4)n3)[nH]n2)cc1
Data returned: 0.942 to 5.65 µM

Data request: State IC50 on PDGFRB (Homo sapiens, UniProt P09619). Entry: COc1ccc(Nc2ncnc(NC[C@@H]3CCCO3)n2)cc1OC
Data returned: 10.6 to 13.6 µM

Data request: Report IC50 under test system PDGFRB (Homo sapiens, UniProt P09619) for COc1cc(Nc2ncnc(-c3cccnc3Nc3cccc(Oc4ccccc4)c3)n2)cc(OC)c1OC .
Data returned: 0.765 to 4.59 µM

Data request: GET IC50 where system = PDGFRB (Homo sapiens, UniProt P09619) and item = c1ccc(Cn2ncc3cc(Nc4ncnc(NCC5CCCCC5)n4)ccc32)cc1
Data returned: > 10.9 µM

Data request: Determine reported IC50 for COc1cc(Nc2ncnc(-n3c(NCc4nccs4)nc4ccccc43)n2)cc(OC)c1OC ; test system: PDGFRB (Homo sapiens, UniProt P09619).
Data returned: < 0.815 µM

Data request: Find the measured IC50 of CN(c1cccc(Cl)c1)c1ncnc(-n2c(N)nc3ccccc32)n1 with PDGFRB (Homo sapiens, UniProt P09619) as test system.
Data returned: 9.95 to 12.8 µM

Data request: Identify measured IC50 obtained with PDGFRB (Homo sapiens, UniProt P09619) for COc1cc(Nc2ncnc(N3CCCc4cc(Cl)ccc43)n2)cc(OC)c1OC .
Data returned: < 0.935 µM

Data request: # lookup: PDGFRB (Homo sapiens, UniProt P09619) IC50, key = CN(c1cccc(Cl)c1)c1ncnc(Nc2cc(-c3ccco3)[nH]n2)n1
Data returned: 1.09 to 6.53 µM

Data request: Quote PDGFRB (Homo sapiens, UniProt P09619) IC50 for entry CN(c1cccc(Cl)c1)c1ncnc(Nc2ccc3cn[nH]c3c2)n1 .
Data returned: 6.82 to 9.95 µM

Data request: Recall the reported IC50 of CC(=O)Nc1ccc(Nc2ncnc(N3CCCc4cc(C)ccc43)n2)cc1 on PDGFRB (Homo sapiens, UniProt P09619) and write it down.
Data returned: 1.07 to 6.41 µM

Data request: Report value only: IC50, PDGFRB (Homo sapiens, UniProt P09619), Cc1ccc2c(c1)CCCN2c1ncnc(Nc2cccc(-c3cnco3)c2)n1
Data returned: < 1.04 µM

---

Molecular target: Zap-70 (Homo sapiens, UniProt P43403)
Construct: Kinases are expressed as either kinase domains or full length constructs; made in house
Sequence (P43403 1-619): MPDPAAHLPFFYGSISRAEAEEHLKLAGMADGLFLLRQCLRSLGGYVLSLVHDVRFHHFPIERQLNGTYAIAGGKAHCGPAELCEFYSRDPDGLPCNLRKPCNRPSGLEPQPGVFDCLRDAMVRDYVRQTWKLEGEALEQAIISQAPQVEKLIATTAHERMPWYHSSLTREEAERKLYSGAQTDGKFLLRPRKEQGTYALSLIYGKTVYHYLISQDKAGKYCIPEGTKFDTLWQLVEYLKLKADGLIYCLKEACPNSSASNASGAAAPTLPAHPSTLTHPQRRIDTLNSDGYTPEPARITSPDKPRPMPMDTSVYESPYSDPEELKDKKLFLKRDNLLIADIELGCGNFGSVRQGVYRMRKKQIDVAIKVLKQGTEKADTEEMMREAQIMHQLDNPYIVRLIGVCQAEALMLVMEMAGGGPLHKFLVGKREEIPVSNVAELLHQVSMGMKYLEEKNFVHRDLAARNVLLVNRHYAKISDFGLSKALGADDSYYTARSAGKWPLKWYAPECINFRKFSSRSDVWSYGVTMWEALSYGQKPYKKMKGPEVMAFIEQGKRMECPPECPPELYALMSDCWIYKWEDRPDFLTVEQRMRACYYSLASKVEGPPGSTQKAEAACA
Assay: Kinase inhibition assay (33P transfer), Zap-70
Assay type: biochemical
Conditions: Table 3; read-out: Zap-1
For each entry below, report its IC50 value.

Data request: Answer with IC50 of COc1cc(Nc2ncnc(N[C@@H](CO)c3ccccc3)n2)cc(OC)c1OC measured for Zap-70 (Homo sapiens, UniProt P43403).
Data returned: > 11.3 µM

Data request: Answer briefly: IC50 recorded on Zap-70 (Homo sapiens, UniProt P43403) for COc1cc(Nc2ncnc(-n3c(Nc4ccccc4C)nc4ccccc43)n2)cc(OC)c1OC
Data returned: > 9.31 µM

Data request: # return IC50 for COc1cc(Nc2ncnc(N3CCN(C(=O)OC(C)(C)C)CC3)n2)cc(OC)c1OC , test system: Zap-70 (Homo sapiens, UniProt P43403)
Data returned: > 10.1 µM

Data request: Retrieve IC50 on Zap-70 (Homo sapiens, UniProt P43403); query COc1cc(Nc2ncnc(-n3c(Cl)nc4ccccc43)n2)cc(OC)c1OC
Data returned: > 10.9 µM

---

molecular target: Itk (Homo sapiens, UniProt Q08881); construct: Kinases are expressed as either kinase domains or full length constructs; made in house; assay: Kinase inhibition assay (33P transfer), Itk; assay type: biochemical; conditions: read-out: Itk-1
Sequence (Q08881 whole entry, species assumed, the tested form may be a part): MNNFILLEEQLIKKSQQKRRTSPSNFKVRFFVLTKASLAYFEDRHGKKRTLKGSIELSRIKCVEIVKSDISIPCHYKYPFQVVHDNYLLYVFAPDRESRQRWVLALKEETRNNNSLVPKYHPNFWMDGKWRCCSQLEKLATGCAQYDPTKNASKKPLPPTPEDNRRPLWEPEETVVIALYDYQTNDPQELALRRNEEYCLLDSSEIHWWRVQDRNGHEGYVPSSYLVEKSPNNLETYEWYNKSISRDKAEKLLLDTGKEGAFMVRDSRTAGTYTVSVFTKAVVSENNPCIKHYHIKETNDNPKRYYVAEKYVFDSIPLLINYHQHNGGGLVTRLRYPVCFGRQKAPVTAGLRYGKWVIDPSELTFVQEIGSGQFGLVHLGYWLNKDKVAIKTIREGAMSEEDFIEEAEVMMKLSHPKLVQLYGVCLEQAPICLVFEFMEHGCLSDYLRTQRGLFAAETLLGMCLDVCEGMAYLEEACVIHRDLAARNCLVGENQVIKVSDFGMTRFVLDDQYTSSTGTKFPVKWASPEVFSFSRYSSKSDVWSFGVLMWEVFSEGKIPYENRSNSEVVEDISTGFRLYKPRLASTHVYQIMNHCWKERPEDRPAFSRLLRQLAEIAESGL
measurement kind: IC50

Data request: State, in one line, measured IC50 of COc1cc(Nc2ncnc(-n3c(N)nc4ccccc43)n2)cc(OC)c1
Data returned: 1.1 to 6.6 µM

Data request: Tell me its IC50 given COc1cc(Nc2ncnc(Nc3cc(F)cc(C(F)(F)F)c3)n2)cc(OC)c1OC as the entry.
Data returned: > 10.2 µM

Data request: Write down IC50 measured for item COc1cc(Nc2ncnc(Nc3ccc4c(cnn4C)c3)n2)cc(OC)c1OC
Data returned: 8.59 to 11 µM

Data request: Hello, please tell me recorded IC50 for this one: COc1cc(Nc2ncnc(-n3c(NCc4ccc(C(F)(F)F)cc4)nc4ccccc43)n2)cc(OC)c1OC
Data returned: > 8.16 µM

Data request: Given CC(C)(C)OC(=O)NCc1cccc(Nc2ncnc(Nc3cc(C(C)(C)C)n[nH]3)n2)c1 , respond with its IC50.
Data returned: > 10.3 µM

Data request: Retrieve IC50 measured for CN(c1cccc(Cl)c1)c1ncnc(Nc2ccc(CC(=O)O)cc2)n1 and print it.
Data returned: > 12.2 µM

Data request: Provide measured IC50 value, entry: CC(C)(C)c1cc(Nc2ncnc(Nc3cccc(C(N)=O)c3)n2)[nH]n1
Data returned: 1.14 to 6.81 µM

Data request: # return recorded IC50 for input Nc1nc2ccccc2n1-c1ncnc(Nc2ccc3c(c2)OCO3)n1
Data returned: 1.15 to 6.91 µM

Data request: # return recorded IC50 for input O=c1[nH]c2ccccc2n1-c1ncnc(Nc2cc(Cl)cc(Cl)c2)n1
Data returned: > 12.1 µM

Data request: Answer with the recorded IC50 of c1ccc(CCNc2ncnc(Nc3ccc4c(cnn4Cc4ccccc4)c3)n2)cc1 only.
Data returned: > 10.7 µM

Data request: Please report IC50 for the following molecule: COc1cc(Nc2ncnc(-n3c(N[C@@H](CO)c4ccccc4)nc4ccccc43)n2)cc(OC)c1OC
Data returned: > 8.76 µM

Data request: Return reported IC50. Input molecule: COc1cc(Nc2ncnc(NC3CC3c3ccccc3)n2)cc(OC)c1OCCN1CCOCC1 (centres unmarked)
Data returned: > 9.14 µM

Data request: Kindly indicate its recorded IC50. Item: Nc1ncnc(Nc2ccc3c(cnn3Cc3ccccc3)c2)n1
Data returned: > 14.2 µM

Data request: Kindly indicate its recorded IC50. Item: COc1cc(Nc2ncnc(Nc3cccc4ccccc34)n2)cc(OCCN2CCOCC2)c1OC
Data returned: 6.96 to 8.95 µM

Data request: Give the reported value of IC50 for this record: CC(C)(C)OC(=O)NCc1cccc(Nc2ncnc(Nc3cc(-c4ccccc4)n[nH]3)n2)c1
Data returned: 5.23 to 7.63 µM

Data request: Please look at this molecule and report its IC50: COc1cc(Nc2ncnc(NC(=O)NCc3ccccc3)n2)cc(OC)c1OC
Data returned: > 11 µM

Data request: Find the measured IC50 of O=c1[nH]c2ccccc2n1-c1ncnc(Nc2cccc(S(=O)(=O)CCO)c2)n1 and report it.
Data returned: > 10.9 µM
